Data provenance is ChEMBL document CHEMBL2375289.

Experiment: Oral bioavailability in rat at 0.5 mg/kg administered as suspension in 0.5 % methylcellulose
Assay type: ADME, organism-based
Settings: in vivo
Property Measured: bioavailability (%)

[A] N#Cc1ccc(-c2ccc(S(=O)(=O)Nc3cccc(N)n3)cc2)cc1
[B] N#Cc1ccc(-c2ccc(S(=O)(=O)Nc3cccc(CO)n3)cc2)cc1
Hi! Which is lower in terms of bioavailability, the first one A or the second one B ? # answer = label of selected item
B

====

Assay: Clearance in rat at 0.1 mg/kg, iv and 0.5 mg/kg, po
Format: ADME, organism-based
Conditions: in vivo
Property Measured: clearance (mL/min/kg)

- Cc1cccc(NS(=O)(=O)c2ccc(-c3ccc(C#N)cc3)cc2)n1: 0.06

[A] N#Cc1ccc(-c2ccc(S(=O)(=O)Nc3cccc(CO)n3)cc2)cc1
[B] Cc1cc(N)nc(NS(=O)(=O)c2ccc(-c3ccc(C#N)cc3)cc2)c1
Given the listed records, identify the one among A and B with higher clearance. # answer = label of selected item
B
